Molecular target: Prostaglandin G/H synthase 2 (Homo sapiens)
Assay: Inhibition of COX-2-mediated PGE2 production in LPS-induced human whole blood after 24 hrs by RIA
# key: entry, value: pIC50
For clarity, pIC50 is expressed as the negative log10 of concentration in mol/L.

// known answers, use as guide
[
  {
    "Smiles code": "CCc1ccnc(C(=O)c2[nH]c3ccc(OC(F)(F)F)cc3c2CC(=O)O)c1",
    "pIC50": 5.24
  },
  {
    "Smiles code": "Cc1ccnc(C(=O)c2[nH]c3cc(Cl)c(F)cc3c2CC(=O)O)c1",
    "pIC50": 7.00
  },
  {
    "Smiles code": "Cc1ccnc(C(=O)c2[nH]c3ccc(F)cc3c2CC(=O)O)c1",
    "pIC50": 6.82
  }
]

q: Sample COc1ccc2c(CC(=O)O)c(C(=O)c3cc(C)ccn3)[nH]c2c1 — what was its pIC50?
a: 5.72

q: Sample COc1ccc2[nH]c(C(=O)c3cc(C)ccn3)c(CC(=O)O)c2c1 — what was its pIC50?
a: 5.66

q: Sample Cc1ccnc(C(=O)c2[nH]c3cc(F)ccc3c2CC(=O)O)c1 — what was its pIC50?
a: 6.81

q: Sample CCc1ccc2[nH]c(C(=O)c3cc(C)ccn3)c(CC(=O)O)c2c1 — what was its pIC50?
a: 5.80

q: Sample Cc1ccnc(C(=O)c2[nH]c3ccc(OC(F)(F)F)cc3c2CC(=O)O)c1 — what was its pIC50?
a: 5.72

---

Target: Prostaglandin G/H synthase 1 (Homo sapiens)
Assay: Inhibition of COX-1-mediated TXB2 production in human platelets preincubated for 20 mins prior A23187 stimulation measured after 15 mins by RIA
Result type: IC50

// known answers, use as guide
[
  {
    "Smiles code": "CCc1ccnc(C(=O)c2[nH]c3ccc(OC(F)(F)F)cc3c2CC(=O)O)c1",
    "IC50": "> 10 µM"
  },
  {
    "Smiles code": "CCOc1cnc(C(=O)c2[nH]c3cc(Cl)ccc3c2CC(=O)O)cc1CC",
    "IC50": "> 10 µM"
  }
]

Next compound, please.
q: Sample Cc1ccnc(C(=O)c2[nH]c3ccc(F)cc3c2CC(=O)O)c1 — what was its IC50?
a: 0.15 µM

---

Target: Prostaglandin G/H synthase 1 (Homo sapiens, UniProt P23219)
Sequence (P23219 whole entry): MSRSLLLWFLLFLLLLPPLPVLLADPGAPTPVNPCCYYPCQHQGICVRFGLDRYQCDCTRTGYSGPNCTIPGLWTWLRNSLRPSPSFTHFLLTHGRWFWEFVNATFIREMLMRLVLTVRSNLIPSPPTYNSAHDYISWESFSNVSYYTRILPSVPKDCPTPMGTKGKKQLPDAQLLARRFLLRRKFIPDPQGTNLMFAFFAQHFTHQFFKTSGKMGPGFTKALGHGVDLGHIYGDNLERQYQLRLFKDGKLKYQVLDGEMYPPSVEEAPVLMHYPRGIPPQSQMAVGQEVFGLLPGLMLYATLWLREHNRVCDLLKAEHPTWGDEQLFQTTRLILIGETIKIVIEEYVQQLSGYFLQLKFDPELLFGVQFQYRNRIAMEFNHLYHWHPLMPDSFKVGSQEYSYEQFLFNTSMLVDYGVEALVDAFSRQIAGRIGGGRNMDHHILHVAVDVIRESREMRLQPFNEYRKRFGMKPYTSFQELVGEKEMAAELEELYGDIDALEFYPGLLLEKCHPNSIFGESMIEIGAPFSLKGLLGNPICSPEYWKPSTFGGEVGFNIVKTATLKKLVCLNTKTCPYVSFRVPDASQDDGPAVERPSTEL
Experiment: Inhibition of COX-1-mediated TXB2 production in human whole blood after 30 mins post A23187 stimulation by RIA
Result type: IC50

q: Sample COc1ccc2[nH]c(C(=O)c3cc(C)ccn3)c(CC(=O)O)c2c1 — what was its IC50?
a: > 100 µM

q: Sample Cc1ccnc(C(=O)c2[nH]c3cc(Cl)c(F)cc3c2CC(=O)O)c1 — what was its IC50?
a: 7.7 µM

q: Sample Cc1ccnc(C(=O)c2[nH]c3ccc(OC(F)(F)F)cc3c2CC(=O)O)c1 — what was its IC50?
a: > 100 µM

---

Molecular target: Prostaglandin G/H synthase 1 (Homo sapiens)
Experiment: Inhibition of COX-1-mediated TXB2 production in human whole blood after 30 mins post A23187 stimulation by RIA
Result type: IC50 (µM)
The reply should be a number in µM, with the unit left off.

// known answers, use as guide
[
  {
    "Smiles code": "Cc1ccnc(C(=O)c2[nH]c3ccc(F)cc3c2CC(=O)O)c1",
    "IC50 [µM]": 21.4
  },
  {
    "Smiles code": "CCc1ccc2[nH]c(C(=O)c3cc(C)ccn3)c(CC(=O)O)c2c1",
    "IC50 [µM]": 47
  }
]

Next molecule, please.
q: Sample Cc1ccnc(C(=O)c2[nH]c3cc(F)ccc3c2CC(=O)O)c1 — what was its IC50?
a: 33.5

---

# key: entry, value: Ratio IC50
Molecular target: COX-1/COX-2 (Homo sapiens) (UniProt P35354+P23219)
Sequence (P23219 whole entry, looked up, one chain of several): as the sequence (P23219 whole entry) above
Test: Selectivity ratio of IC50 for COX-1-mediated TXB2 production in human platelets to IC50 for COX-2-mediated 6-keto-PGF1alpha production in IL-1beta-induced HUVEC
Format: numeric value only, no unit, no commentary.

// known answers, use as guide
[
  {
    "Smiles code": "Cc1ccnc(C(=O)c2[nH]c3ccc(F)cc3c2CC(=O)O)c1",
    "Ratio IC50": 26.4
  },
  {
    "Smiles code": "Cc1ccnc(C(=O)c2[nH]c3cc(Cl)c(F)cc3c2CC(=O)O)c1",
    "Ratio IC50": 9.73
  },
  {
    "Smiles code": "Cc1ccnc(C(=O)c2[nH]c3cc(F)ccc3c2CC(=O)O)c1",
    "Ratio IC50": 86.5
  }
]

q: Sample COc1ccc2[nH]c(C(=O)c3cc(C)ccn3)c(CC(=O)O)c2c1 — what was its Ratio IC50?
a: 23.8

---

Target: Prostaglandin G/H synthase 2 (Homo sapiens, UniProt P35354)
Sequence (P35354 whole entry): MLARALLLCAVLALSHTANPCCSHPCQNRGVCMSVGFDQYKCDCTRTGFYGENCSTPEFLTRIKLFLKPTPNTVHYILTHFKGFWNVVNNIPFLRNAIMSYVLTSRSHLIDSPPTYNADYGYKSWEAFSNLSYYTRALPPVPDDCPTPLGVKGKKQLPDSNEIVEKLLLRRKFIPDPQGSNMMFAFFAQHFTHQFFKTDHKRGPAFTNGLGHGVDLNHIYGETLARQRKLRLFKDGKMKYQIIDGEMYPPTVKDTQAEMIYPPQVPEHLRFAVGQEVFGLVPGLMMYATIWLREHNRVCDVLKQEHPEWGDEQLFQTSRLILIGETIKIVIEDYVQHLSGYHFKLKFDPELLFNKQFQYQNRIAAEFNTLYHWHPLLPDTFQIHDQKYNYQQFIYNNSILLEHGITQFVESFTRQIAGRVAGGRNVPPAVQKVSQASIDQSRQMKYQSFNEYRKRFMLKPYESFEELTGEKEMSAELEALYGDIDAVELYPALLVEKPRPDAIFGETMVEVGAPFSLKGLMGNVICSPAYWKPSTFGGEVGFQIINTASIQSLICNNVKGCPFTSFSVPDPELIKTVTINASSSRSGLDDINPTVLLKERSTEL
Assay: Inhibition of COX-2-mediated 6-keto-PGF1alpha production in IL-1beta-induced HUVEC preincubated for 20 mins prior A23187 stimulation measured after 15 mins by RIA
# key: entry, value: IC50
The reply should be a number in nM, with the unit left off.

[
  {
    "Smiles code": "Cc1ccnc(C(=O)c2[nH]c3ccc(OC(F)(F)F)cc3c2CC(=O)O)c1",
    "Measured target": "Prostaglandin G/H synthase 2 (Homo sapiens, UniProt P35354)",
    "Result type": "IC50",
    "Recorded measurement": 39.6
  },
  {
    "Smiles code": "CCOc1cnc(C(=O)c2[nH]c3cc(Cl)ccc3c2CC(=O)O)cc1CC",
    "Measured target": "Prostaglandin G/H synthase 2 (Homo sapiens, UniProt P35354)",
    "Result type": "IC50",
    "Recorded measurement": 598
  },
  {
    "Smiles code": "Cc1ccnc(C(=O)c2[nH]c3cc(Cl)c(F)cc3c2CC(=O)O)c1",
    "Measured target": "Prostaglandin G/H synthase 2 (Homo sapiens, UniProt P35354)",
    "Result type": "IC50",
    "Recorded measurement": 6.77
  },
  {
    "Smiles code": "CCc1cc(C(=O)c2[nH]c3cc(Cl)ccc3c2CC(=O)O)ncc1Cl",
    "Measured target": "Prostaglandin G/H synthase 2 (Homo sapiens, UniProt P35354)",
    "Result type": "IC50",
    "Recorded measurement": 30.7
  },
  {
    "Smiles code": "Cc1ccnc(C(=O)c2[nH]c3ccc(F)cc3c2CC(=O)O)c1",
    "Measured target": "Prostaglandin G/H synthase 2 (Homo sapiens, UniProt P35354)",
    "Result type": "IC50",
    "Recorded measurement": 5.68
  },
  {
    "Smiles code": "COc1ccc2c(CC(=O)O)c(C(=O)c3cc(C)ccn3)[nH]c2c1",
    "Measured target": "Prostaglandin G/H synthase 2 (Homo sapiens, UniProt P35354)",
    "Result type": "IC50",
    "Recorded measurement": 128
  },
  {
    "Smiles code": "CCc1ccc2c(CC(=O)O)c(C(=O)c3cc(C)ccn3)[nH]c2c1",
    "Measured target": "Prostaglandin G/H synthase 2 (Homo sapiens, UniProt P35354)",
    "Result type": "IC50",
    "Recorded measurement": 414
  },
  {
    "Smiles code": "COc1ccc2[nH]c(C(=O)c3cc(C)ccn3)c(CC(=O)O)c2c1",
    "Measured target": "Prostaglandin G/H synthase 2 (Homo sapiens, UniProt P35354)",
    "Result type": "IC50",
    "Recorded measurement": 128
  }
]

Next compound, please.
q: Sample Cc1ccnc(C(=O)c2[nH]c3cc(F)ccc3c2CC(=O)O)c1 — what was its IC50?
a: 9.81

Reference source for all entries: ChEMBL document CHEMBL1949501
